SYSTEM UNDER TEST: SHP2 (Homo sapiens (Human))
Sequence (Q06124 whole entry): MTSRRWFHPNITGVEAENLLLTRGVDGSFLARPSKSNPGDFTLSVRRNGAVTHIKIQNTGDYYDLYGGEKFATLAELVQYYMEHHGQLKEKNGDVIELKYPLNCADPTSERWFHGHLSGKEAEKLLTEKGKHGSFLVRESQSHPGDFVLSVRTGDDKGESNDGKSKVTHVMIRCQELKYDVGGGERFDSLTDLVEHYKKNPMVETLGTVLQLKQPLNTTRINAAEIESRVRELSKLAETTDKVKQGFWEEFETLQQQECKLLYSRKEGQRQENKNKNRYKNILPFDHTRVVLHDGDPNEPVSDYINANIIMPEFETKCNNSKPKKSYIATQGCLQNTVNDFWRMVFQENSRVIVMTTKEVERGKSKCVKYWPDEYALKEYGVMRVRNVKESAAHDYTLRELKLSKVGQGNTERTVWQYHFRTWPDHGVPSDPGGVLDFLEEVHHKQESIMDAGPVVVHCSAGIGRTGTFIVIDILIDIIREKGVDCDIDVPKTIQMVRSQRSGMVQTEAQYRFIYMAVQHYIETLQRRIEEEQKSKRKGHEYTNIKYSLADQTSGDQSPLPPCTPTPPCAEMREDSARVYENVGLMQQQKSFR
ASSAY TEXT: SHP2 allosteric inhibition assay (DiFMUP prompt fluorescence)
Type: biochemical
CONDITIONS USED: 0.2 nM SHP2 activated with 0.5 μM Activating Peptide 1 or 2; substrate DiFMUP; Table 1
Exercise: for every item that follows, state its recorded pIC50.
One number for each entry, as −log10 of the molar value.

{"MOLECULE": "CC1(N)CCN(c2ncc(Sc3ccnc(N)c3Cl)c3nccn23)CC1 [Compound 2 (Example 2)]", "MEASURED PARAMETER": "pIC50", "REPORTED": 6.92}

# batch size: 3; output pIC50 per entry
1. Cc1nc(N2CCC3(CC2)CO[C@@H](C)[C@H]3N)n2cnnc2c1-c1cccc(Cl)c1Cl [Compound 6 (Example 6)]
2. C[C@@H]1OCC2(CCN(c3ncc(Sc4ccnc(N)c4Cl)c4nccn34)CC2)[C@@H]1N [Compound 1 (Example 1)]
3. C[C@@H]1OCC2(CCN(c3ncc(Sc4ccnc(N)c4Cl)c4ncnn34)CC2)[C@@H]1N [Compound 4 (Example 4)]

## Result
[8.00, 9.00, 7.54]
